- System: B6C3F1 mice, B16 melanoma ip, median survival T/C
- Protocol description: NCI In Vivo Anticancer Drug Screen. Data for tumor model B16 Melanoma (intraperitoneal) in B6C3F1 mice
- Measurement conditions: endpoint: median survival time; dose: 2.5 mg/kg/injection; schedule: Q01DX009 (ip); vehicle: saline
Inconclusive results and toxic doses are left out. How the source made its calls: active means survival T/C of 150% or more; inactive means T/C below 125% in these data.
Classes used: active, inactive

Compound	Assigned label
Cc1nc(N)nc(N)c1-c1ccc(Cl)c(Cl)c1	inactive
C/C(=N\NC(=O)c1ccncc1)c1ccc(Cl)cc1	inactive
O=NN(CCCl)C(=O)NC1[C@H](O)CCC[C@@H]1O (some centres undefined)	active
COc1cc2c(c(OC)c1OC)-c1cccc(=O)cc1C(NC(C)=O)CC2 (centres undefined)	inactive

----------
- Test system: B6C3F1 mice, B16 melanoma ip, median survival T/C
- Protocol description: NCI In Vivo Anticancer Drug Screen. Data for tumor model B16 Melanoma (intraperitoneal) in B6C3F1 mice
- Measurement conditions: endpoint: median survival time; dose: 100.0 mg/kg/injection; schedule: Q01DX009 (ip); vehicle: saline
- Protocol: The antitumor activity of compounds was measured in mice bearing transplantable tumors. Survival or tumor size were measured and the results are expressed as the measurement made in the treated group (T) divided by the measurement made in the vehicle treated control group (C). The tumor model used in this assay is B16 Melanoma (intraperitoneal) in B6C3F1 mice
Toxic doses and inconclusive results are not listed. The calls were made as follows: active = survival T/C of 150% or more; inactive = T/C below 125% in these data. Where a SMILES comes first, the peptide text is derived from it.
Outcomes: yes = active, no = inactive

Molecule	Assigned label
NC(CCCNc1cccc(O)c1)C(=O)O (centres undefined)	no
CCCCCC[C@@H](O)C/C=C\CCCCCCCC(=O)OCCO	no
NC(CCCCNC=O)C(=O)O (centres undefined)	no
NC(N)=N/N=C/c1ccc(Cl)cc1Cl	no
Nc1ncnc2c1ncn2C1OC(COP(=O)(O)O)C(O)C1O (centres undefined)	no
CC(CNC(=O)CCOS(C)(=O)=O)NC(=O)CCOS(C)(=O)=O (centres undefined)	yes
CN(C)[C@@H]1C(=O)C(C(N)=O)=C(O)[C@@]2(O)C(=O)C3=C(O)c4c(O)ccc(Cl)c4[C@@](C)(O)[C@H]3C[C@@H]12	no
C=C(C(=O)O)C(N)C(=O)O (centres undefined)	no
CNC=O	no
COCCOC	no
O=C(O)CC(NC(=O)CP(=O)(O)O)C(=O)O (centres undefined)	yes
NC(Cc1ccc(O)c(Cl)c1)C(=O)O (centres undefined)	no
CCC(N)C(=O)NCC(=O)NCC(=O)O (centres undefined) (HELM PEPTIDE1{[CCC(N)C(=O)[*:2]].G.G}$$$$V2.0)	no
NC(=O)CCC(N)C(=O)O (centres undefined)	no

----------
- System: B6C3F1 mice, B16 melanoma ip, median survival T/C
- Protocol description: NCI In Vivo Anticancer Drug Screen. Data for tumor model B16 Melanoma (intraperitoneal) in B6C3F1 mice
- Measurement conditions: endpoint: median survival time; dose: 50.0 mg/kg/injection; schedule: Q01DX009 (ip); vehicle: Klucel (hydroxypropylcellulose) (HPC); higher = longer survival
Toxic doses and inconclusive results are not listed. Where a SMILES comes first, the peptide text is derived from it. The star is where a group is joined. For = O=C*
Assay metric: T/C

Molecule	Result
Cc1cc(NC(=S)SCc2ccc3c(c2)OCO3)ccc1Cl	103 % of control
ClC1C(Cl)C(Cl)C(Cl)C(Cl)C1Cl (stereo not given)	100 % of control
CSCCC(NC=O)C(=O)NC(C(=O)O)C(C)C (stereo not drawn) (For-Met-Val-OH; configuration not given here)	101 % of control
CC(=O)OCC1OC(OC2=C(CC=C(C)C)C(=O)c3ccccc3C2=O)C(OC(C)=O)C(OC(C)=O)C1OC(C)=O (stereo not given)	94 % of control
O=C(NC(Cc1ccc(I)cc1)C(=O)O)c1cccc(Br)c1 (stereo not given)	104 % of control
